# Avg % Edit listing for each entry below
# System: TTR
# experimental_details: TTR editing in primary human hepatocytes transfected with Spy Cas9 mRNA and sgRNAs (Table 13)
# Type: cell-based
# condition_label: primary human hepatocytes co-transfected with Spy Cas9 mRNA (SEQ ID NO:2) and sgRNAs, 12.5 nM
# Method: Primary liver hepatocytes. Primary human liver hepatocytes (PHH) and primary cynomolgus liver hepatocytes (PCH) (Gibco) were cultured per the manufacturer's protocol (Invitrogen, protocol 11.28.2012). […] Cells were counted and plated on Bio-coat collagen I coated 96-well plates (ThermoFisher, Cat. 877272) at a density of 33,000 cells/well for human or 60,000 cells/well for cyno (or 65,000 cells/well when assaying effects on TTR protein, described further below). […]
Strand notation (5' to 3'): a small letter for the sugar, then the base; units joined by * are phosphorothioate-linked, units joined directly phosphodiester-linked; [ ] holds rarer units or linkages, { } end groups; capitals alone tell only the bases. m = 2'-O-methyl; r = 2'-OH (RNA)
Quick reminder: number only, in %, skip the unit.

1) G000501: TTR sgRNA modified sequence, Human, SEQ ID No. 108; guide sequence of CR005300 (nucleic acid) guide: mU*mC*mA*rCrArGrArArArCrArCrUrCrArCrCrGrUrArGrUrUrUrUrArGrAmGmCmUmAmGmAmAmAmUmAmGmCrArArGrUrUrArArArArUrArArGrGrCrUrArGrUrCrCrGrUrUrArUrCrAmAmCmUmUmGmAmAmAmAmAmGmUmGmGmCmAmCmCmGmAmGmUmCmGmGmUmGmCmU*mU*mU*mU
40.32

stdin: Request the reported Avg % Edit associated with G000572: TTR sgRNA modified sequence, Human, SEQ ID No. 113; guide sequence of CR003385 (nucleic acid) guide: mC*mC*mC*rCrUrArCrUrCrCrUrArUrUrCrCrArCrCrArGrUrUrUrUrArGrAmGmCmUmAmGmAmAmAmUmAmGmCrArArGrUrUrArArArArUrArArGrGrCrUrArGrUrCrCrGrUrUrArUrCrAmAmCmUmUmGmAmAmAmAmAmGmUmGmGmCmAmCmCmGmAmGmUmCmGmGmUmGmCmU*mU*mU*mU
stdout: 55.42

stdin: Request the reported Avg % Edit associated with G000497: TTR sgRNA modified sequence, Human, SEQ ID No. 104; guide sequence of CR003335 (nucleic acid) guide: mC*mU*mG*rCrUrCrCrUrCrCrUrCrUrGrCrCrUrUrGrCrGrUrUrUrUrArGrAmGmCmUmAmGmAmAmAmUmAmGmCrArArGrUrUrArArArArUrArArGrGrCrUrArGrUrCrCrGrUrUrArUrCrAmAmCmUmUmGmAmAmAmAmAmGmUmGmGmCmAmCmCmGmAmGmUmCmGmGmUmGmCmU*mU*mU*mU
stdout: 40.33

stdin: Request the reported Avg % Edit associated with G000500: TTR sgRNA modified sequence, Human, SEQ ID No. 107; guide sequence of CR003337 (nucleic acid) guide: mC*mC*mA*rGrUrCrCrArGrCrArArGrGrCrArGrArGrGrGrUrUrUrUrArGrAmGmCmUmAmGmAmAmAmUmAmGmCrArArGrUrUrArArArArUrArArGrGrCrUrArGrUrCrCrGrUrUrArUrCrAmAmCmUmUmGmAmAmAmAmAmGmUmGmGmCmAmCmCmGmAmGmUmCmGmGmUmGmCmU*mU*mU*mU
stdout: 35.50

stdin: Request the reported Avg % Edit associated with G000491: TTR sgRNA modified sequence, Human, SEQ ID No. 98; guide sequence of CR003338 (nucleic acid) guide: mA*mU*mA*rCrCrArGrUrCrCrArGrCrArArGrGrCrArGrGrUrUrUrUrArGrAmGmCmUmAmGmAmAmAmUmAmGmCrArArGrUrUrArArArArUrArArGrGrCrUrArGrUrCrCrGrUrUrArUrCrAmAmCmUmUmGmAmAmAmAmAmGmUmGmGmCmAmCmCmGmAmGmUmCmGmGmUmGmCmU*mU*mU*mU
stdout: 45.93

stdin: Request the reported Avg % Edit associated with G000482: TTR sgRNA modified sequence, Human, SEQ ID No. 89; guide sequence of CR003365 (nucleic acid) guide: mU*mG*mU*rArGrArArGrGrGrArUrArUrArCrArArArGrGrUrUrUrUrArGrAmGmCmUmAmGmAmAmAmUmAmGmCrArArGrUrUrArArArArUrArArGrGrCrUrArGrUrCrCrGrUrUrArUrCrAmAmCmUmUmGmAmAmAmAmAmGmUmGmGmCmAmCmCmGmAmGmUmCmGmGmUmGmCmU*mU*mU*mU
stdout: 40.93

stdin: Request the reported Avg % Edit associated with G000494: TTR sgRNA modified sequence, Human, SEQ ID No. 101; guide sequence of CR003360 (nucleic acid) guide: mG*mU*mG*rArGrUrCrUrGrGrArGrArGrCrUrGrCrArUrGrUrUrUrUrArGrAmGmCmUmAmGmAmAmAmUmAmGmCrArArGrUrUrArArArArUrArArGrGrCrUrArGrUrCrCrGrUrUrArUrCrAmAmCmUmUmGmAmAmAmAmAmGmUmGmGmCmAmCmCmGmAmGmUmCmGmGmUmGmCmU*mU*mU*mU
stdout: 26.22

stdin: Request the reported Avg % Edit associated with G000493: TTR sgRNA modified sequence, Human, SEQ ID No. 100; guide sequence of CR003368 (nucleic acid) guide: mA*mA*mG*rUrGrCrCrUrUrCrCrArGrUrArArGrArUrUrGrUrUrUrUrArGrAmGmCmUmAmGmAmAmAmUmAmGmCrArArGrUrUrArArArArUrArArGrGrCrUrArGrUrCrCrGrUrUrArUrCrAmAmCmUmUmGmAmAmAmAmAmGmUmGmGmCmAmCmCmGmAmGmUmCmGmGmUmGmCmU*mU*mU*mU
stdout: 11.55

stdin: Request the reported Avg % Edit associated with G000489: TTR sgRNA modified sequence, Human, SEQ ID No. 96; guide sequence of CR003344 (nucleic acid) guide: mU*mU*mU*rGrArCrCrArUrCrArGrArGrGrArCrArCrUrGrUrUrUrUrArGrAmGmCmUmAmGmAmAmAmUmAmGmCrArArGrUrUrArArArArUrArArGrGrCrUrArGrUrCrCrGrUrUrArUrCrAmAmCmUmUmGmAmAmAmAmAmGmUmGmGmCmAmCmCmGmAmGmUmCmGmGmUmGmCmU*mU*mU*mU
stdout: 24.25

stdin: Request the reported Avg % Edit associated with G000486: TTR sgRNA modified sequence, Human, SEQ ID No. 93; guide sequence of CR003339 (nucleic acid) guide: mA*mC*mA*rCrArArArUrArCrCrArGrUrCrCrArGrCrArGrUrUrUrUrArGrAmGmCmUmAmGmAmAmAmUmAmGmCrArArGrUrUrArArArArUrArArGrGrCrUrArGrUrCrCrGrUrUrArUrCrAmAmCmUmUmGmAmAmAmAmAmGmUmGmGmCmAmCmCmGmAmGmUmCmGmGmUmGmCmU*mU*mU*mU
stdout: 59.13

stdin: Request the reported Avg % Edit associated with G000487: TTR sgRNA modified sequence, Human, SEQ ID No. 94; guide sequence of CR003357 (nucleic acid) guide: mU*mU*mC*rUrUrUrGrGrCrArArCrUrUrArCrCrCrArGrGrUrUrUrUrArGrAmGmCmUmAmGmAmAmAmUmAmGmCrArArGrUrUrArArArArUrArArGrGrCrUrArGrUrCrCrGrUrUrArUrCrAmAmCmUmUmGmAmAmAmAmAmGmUmGmGmCmAmCmCmGmAmGmUmCmGmGmUmGmCmU*mU*mU*mU
stdout: 49.57
